# Tested on: Vero E6 infected with SARS-CoV-2
# assay protocol: morphology score (similarity to uninfected cells); higher = more like uninfected cells
# details: 24 h
Response key: fulfilled means morphology score >= 0.05; not fulfilled means morphology score < 0.05.

compound	study system	class
C[C@@H]1CCN(C(=O)CC#N)C[C@@H]1N(C)c1ncnc2[nH]ccc12 (10 µM)	Vero E6 infected with SARS-CoV-2	fulfilled

## Task Dear colleague, could you confirm whether C=CCOc1ccccc1OCC(O)CNC(C)C (stereo not given) [oxprenolol] (10 µM) has morphology score at or above 0.05?
## Result not fulfilled

## Task Another compound: CC(=O)c1c(C)c2cnc(Nc3ccc(N4CCNCC4)cn3)nc2n(C2CCCC2)c1=O [palbociclib] (10 µM)
## Result fulfilled

## Task Another compound: CN(C)CCCSc1ccccc1NC(=O)/C=C/c1ccccc1 [cinanserin] (10 µM)
## Result fulfilled

## Task Another compound: N[C@@H]1CCN(c2cccnc2)C1 (10 µM)
## Result not fulfilled

## Task Another compound: C[n+]1cc2c3c(ccc2c2ccc4cc5c(cc4c21)OCO5)OCO3 [sanguinarium-chloride] (10 µM)
## Result not fulfilled

## Task Another compound: COc1cc(C(C)=O)ccc1O [apocynin] (10 µM)
## Result fulfilled

## Task Another compound: NCC(=O)CCC(=O)O [5-aminolevulinic-acid] (10 µM)
## Result not fulfilled

## Task Another compound: CC[C@H]1OC(=O)[C@@](C)(F)C(=O)[C@H](C)[C@@H](O[C@@H]2O[C@H](C)C[C@H](N(C)C)[C@H]2O)[C@](C)(OC)C[C@@H](C)C(=O)[C@H](C)[C@H]2N(CCCCn3cc(-c4cccc(N)c4)nn3)C(=O)O[C@]12C [solithromycin] (10 µM)
## Result fulfilled

###

Listed molecules paired with reported inhibition of SARS-CoV-2 cytopathic effect
# Test system: Vero E6 infected with SARS-CoV-2
# assay protocol: inhibition of SARS-CoV-2 cytopathic effect; higher = more antiviral protection, active = above 15
# details: 10000 nM; 48 h
Form entry: value (%) — number only.

Example entries begin here.
> print(dat)
                                    molecule  measured
 1  Cc1noc(-c2ccc(-c3ccc(CC(=O)O)cc3)cc2)c1NC(=O)O[C@H](C)c1ccccc1     -4.34
 2  Cn1cc(-c2cnn3c(N)c(Br)c([C@@H]4CCCNC4)nc23)cn1      0.48
 3  CO/N=C(\C(=O)N[C@@H]1C(=O)N2C(C(=O)O)=C(COC(N)=O)CS[C@H]12)c1ccco1     -0.24
 4      CN(C)C(=O)Oc1ccc[n+](C)c1 [mestinon]     -1.86
 5  COc1cccc(OC)c1-c1cc(C(=O)N[C@@H](CC(C)C)C(=O)O)nn1-c1ccnc2cc(Cl)ccc12     -0.46
 6                     O=C(O)c1cc2occc2[nH]1     -2.87
 7  COC(=O)Nc1nc2cc(C(=O)c3ccccc3)ccc2[nH]1 [mebendazole]      0.89
 8  Cc1ccc(S(=O)(=O)NC2c3ccccc3Oc3ccccc32)cc1     -2.38
 9  O=[N+]([O-])c1ccc(O)c([N+](=O)[O-])c1 [2,4-dinitrophenol]      2.69
10  O=C(Nc1cnccc1Cl)N1CCN(Cc2ccc3c(c2)OC(F)(F)O3)CC1       0.7

## Task // map `Cc1ncc(CN2CC=C(c3ccccc3)CC2)c(N)n1` to recorded inhibition of SARS-CoV-2 cytopathic effect (system: Vero E6 infected with SARS-CoV-2)
## Result 0.43
